Molecular target: T1, IGF-IIE (amino acids 1-104 of pro-IGF-II) (human, UniProt P01344 25-128)
T1 construct: Biotinylated in the selections; also called IGF-IIE (104aa)
T1 sequence (P01344 25-128): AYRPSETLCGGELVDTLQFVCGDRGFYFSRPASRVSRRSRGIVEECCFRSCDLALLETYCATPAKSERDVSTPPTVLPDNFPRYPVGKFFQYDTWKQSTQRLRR
Test: competition SPR (BIACORE T100), affinity in solution, free ligand read on huIR-A ECD; measurement 2
Measure: Kd (nM)
Record the value in nM, omitting the unit from your answer.

Binder: M0063-F02 Fab (Fab, V domains shown, soluble Fab (sFab); also called R0032-A01) VH: EVQLLESGGGLVQPGGSLRLSCAASGFTFSKYEMDWVRQAPGKGLEWVSVISSSGGGTIYADSVKGRFTISRDNSKNTLYLQMNSLRAEDTAMYYCARGRTLYGGAFDIWGQGTMVTVSS VL: DIQMTQSPSSLSASVGDRVTITCRASQPINTYLNWYQQRPGKAPRILIYTSSTLQSGVPSRFSGSGSGTDFTLTISSVQPEDFATYYCQQSYSFPLTFGGGTKVEIKR
Kd, nM: 1.47

Binder: M0064-F02 Fab (Fab, V domains shown, soluble Fab (sFab); also the Fab crystallised with IGF-II; also called R0032-A11; 566A-M0064-F02) VH: EVQLLESGGGLVQPGGSLRLSCAASGFTFSNYIMWWVRQAPGKGLEWVSVISSSGGMTRYADSVKGRFTISRDNSKNTLYLQMNSLRAEDTAVYYCARDNGDYVGEKGFDIWGQGTMVTVSS VL: DIQMTQSPSSLSASVGDRVTITCRASQSISNYLNWYQQKPGKAPKLLIYTASTLQSGVPSRFSGSASGTDFTLTINSLQPEDFATYSCQQSYNSPWTFGQGTKVEIKR
Kd, nM: 0.352

Next binder, Kd to be filled in.
Need Kd, item M0064-E04 Fab (Fab, V domains shown, soluble Fab (sFab); also called R0032-A03; 566A-M0064-E04) VH: EVQLLESGGGLVQPGGSLRLSCAASGFTFSVYDMNWVRQAPGKGLEWVSSISSSGGGTLYADSVKGRFTISRDNSKNTLYLQMNSLRAEDTAVYYCARDSDTSSYYWYYDLWGRGTLVTVSS VL: DIQMTQSPSSLSASVGDRVTITCQASHDISNYLNWYQQKPGKAPKLLIYAASRLQSGVPSRFSGGGSGTDFSLTISSLQAEDFATYYCQQSYSFPRTFGQGTNLEIKR 0.424
